Target sequence: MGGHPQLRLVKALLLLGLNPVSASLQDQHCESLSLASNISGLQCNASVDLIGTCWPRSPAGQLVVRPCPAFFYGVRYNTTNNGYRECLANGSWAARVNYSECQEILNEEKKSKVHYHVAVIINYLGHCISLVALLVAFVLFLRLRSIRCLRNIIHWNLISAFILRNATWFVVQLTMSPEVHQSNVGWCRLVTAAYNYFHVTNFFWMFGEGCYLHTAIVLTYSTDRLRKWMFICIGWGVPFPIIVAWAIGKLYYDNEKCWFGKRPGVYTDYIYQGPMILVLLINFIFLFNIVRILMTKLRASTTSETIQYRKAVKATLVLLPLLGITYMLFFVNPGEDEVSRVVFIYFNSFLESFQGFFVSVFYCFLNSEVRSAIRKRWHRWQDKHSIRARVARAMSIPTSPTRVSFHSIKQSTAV
pKi: −log10 of the molar value.
# key: entry, value: pKi
property-name: pKi

>>> observed("CCN(C)c1cc(C)nc2c1NC(=O)CN2c1ccc(C(C)C)cc1Br")
7.79
>>> observed("CCCCN(CC)c1cc(C)nc2c1NC(=O)CN2c1ccc(Br)cc1Br")
8.89
>>> observed("CCCN(CCC)c1cc(C)nc2c1NC(=O)CN2c1ccc(C(C)C)cc1Br")
8.51
>>> observed("CCCCN(CC)c1cc(C)nc2c1NC(=O)CN2c1ccc(C(C)C)cc1Br")
8.62
>>> observed("CCCCN(CC)c1cc(C)nc2c1NC(=O)CN2c1ccc(C(C)(C)C)cc1Br")
8.38
>>> observed("CCN(C)c1cc(C)nc2c1N(CCCCF)C(=O)CN2c1ccc(C(C)C)cc1Br")
7.86
>>> observed("CCCCN(CC)c1cc(C)nc2c1NC(=O)CN2c1ccc(Cl)cc1Br")
8.60
>>> observed("CCN(CC)c1cc(C)nc2c1N(CCF)C(=O)CN2c1ccc(C(C)C)cc1Br")
8.14
>>> observed("CCCCN(CC)c1cc(C)nc2c1N(C)C(=O)CN2c1ccc(Br)cc1Br")
8.62
>>> observed("CCCCN(CC)c1cc(C)nc2c1NC(=O)CN2c1ccc(Cl)cc1Cl")
8.47
>>> observed("CCCCN(CC)c1cc(C)nc2c1NC(=O)CN2c1ccc(OC)cc1C")
8.40
>>> observed("CCCCN(CC)c1cc(C)nc2c1NC(=O)CN2c1ccc(Br)cc1CC")
8.60

====

Experiment: Lipophilicity, logP of the compound at pH 7.4
Format: physicochemical
Settings: buffer
property-name: logD

>>> observed("CCN(C)c1cc(C)nc2c1N(CCCC[17F])C(=O)CN2c1ccc(C(C)C)cc1Br")
2.22
>>> observed("Cc1cc(N(C)C)c2c(n1)N(c1ccc(C(C)C)cc1Br)CC(=O)N2CCCC[17F]")
2.19

====

Biological target: Corticotropin-releasing factor receptor 2 (Homo sapiens)
Experiment: Displacement of [125I]-antisauvagine-30 from human CRF2 receptor expressed in HEK293T cells at 1 uM after 2 hrs by scintillation counting
Type: cell-based
Settings: HEK-293T
# key: entry, value: inhibition
property-name: inhibition (%)

>>> observed("CCCN(CCC)c1cc(C)nc2c(-c3cnc(N(C)C)cc3C)c(C)nn12")
23.8
>>> observed("CCCCN(CC)c1cc(C)nc2c1NC(=O)CN2c1ccc(Br)cc1C")
5.9
>>> observed("CCCCN(CC)c1cc(C)nc2c1NC(=O)CN2c1ccc(Br)cc1Br")
9.4
>>> observed("CCCCN(CC)c1cc(C)nc2c1NC(=O)CN2c1ccc(Br)cc1CC")
2.1
>>> observed("CCCCN(CC)c1cc(C)nc2c1NC(=O)CN2c1ccc(C(C)C)cc1Br")
0.7
>>> observed("CCCCN(CC)c1cc(C)nc2c1NC(=O)CN2c1ccc(C)cc1Br")
5.5
>>> observed("CCCCN(CC)c1cc(C)nc2c1NC(=O)CN2c1ccc(C)cc1C")
6.8
>>> observed("CCCCN(CC)c1cc(C)nc2c1NC(=O)CN2c1ccc(OC)cc1C")
-2.3
>>> observed("CCCCN(CC)c1cc(C)nc2c1NC(=O)CN2c1ccc(C(C)(C)C)cc1Br")
-3.8
>>> observed("CCCCN(CC)c1cc(C)nc2c1NC(=O)CN2c1ccc(Cl)cc1Cl")
0.9
